Provenance of the data: patent US9365522B2

- assay_target: human RORγ-LBD (Homo sapiens)
- Construct: made in house; host or cells: E. coli (BL-21)
- Sequence (P51449 262-518): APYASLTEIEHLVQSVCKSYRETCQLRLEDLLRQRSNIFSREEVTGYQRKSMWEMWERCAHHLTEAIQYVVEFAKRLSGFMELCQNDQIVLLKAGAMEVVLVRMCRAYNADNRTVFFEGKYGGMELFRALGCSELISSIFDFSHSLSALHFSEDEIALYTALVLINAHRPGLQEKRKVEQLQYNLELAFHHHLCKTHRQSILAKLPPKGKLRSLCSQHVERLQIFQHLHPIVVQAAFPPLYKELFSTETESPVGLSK
- assay_info: ROR gamma coactivator peptide recruitment Alphascreen assay (RORγ-LBD binding to GRIP1 coactivator peptide)
- Format: biochemical
- conditions_used: 5 nM human RORγ-LBD, 30 nM 7-β-hydroxycholesterol, 50 nM biotinylated GRIP1 coactivator peptide, overnight incubation at room temperature; read-out: result (pIC50, RORγ coactivator peptide recruitment Alphascreen assay) (converted)
With a cut-off of 20 nM, any IC50 strictly below it is called MET; any IC50 meeting it or above is called NOT MET.

{"compound": "C[C@H]1C[C@@H](n2ncc(C(=O)N(CC(=O)c3c(Cl)cncc3Cl)CC(C)(C)C(F)(F)F)c2C(F)(F)F)CC[C@@H]1C(=O)O (single isomer, unassigned) [Example 879]", "label_class": "MET"}
{"compound": "O=C(c1cnn([C@H]2CC[C@H](C(=O)O)CC2)c1C(F)(F)F)N(CCc1cccc2[nH]ccc12)Cc1ccc(Cl)cc1 [Example 506]", "label_class": "NOT MET"}
{"compound": "CC1(C)CC[C@@H]1N(CC(=O)c1c(Cl)cccc1Cl)C(=O)c1cnn([C@H]2CC[C@](C)(C(=O)O)CC2)c1C(F)(F)F [Example 620]", "label_class": "NOT MET"}
{"compound": "CCC(C)(C)CN(CC(=O)c1c(F)cccc1Cl)C(=O)c1cnn([C@H]2CC[C@](C)(C(=O)O)CC2)c1C(F)(F)F [Example 657]", "label_class": "MET"}
{"compound": "COc1ncc(Cl)c(CCN(CC(C)(C)C)C(=O)c2cnn([C@H]3CC[C@](C)(C(=O)O)CC3)c2C(F)(F)F)c1Cl [Example 872]", "label_class": "NOT MET"}
{"compound": "COc1cc(Cl)c(C(=O)CN(C(=O)c2cnn([C@H]3CC[C@](C)(C(=O)O)CC3)c2C(F)(F)F)C2CCC(C)(C)CC2)c(Cl)c1 [Example 579]", "label_class": "MET"}
{"compound": "C[C@]1(C(=O)O)CC[C@H](n2ncc(C(=O)N(CC(=O)c3c(Cl)cncc3Cl)C[C@H]3CCCO3)c2C(F)(F)F)CC1 [Example 808]", "label_class": "NOT MET"}
{"compound": "C[C@]1(C(=O)O)CC[C@H](n2ncc(C(=O)N(CC(=O)c3c(Cl)cncc3Cl)CC3CC(F)(F)C3)c2C(F)(F)F)CC1 [Example 594]", "label_class": "NOT MET"}
{"compound": "C[C@@H]1C[C@@H](n2ncc(C(=O)N(CC(=O)c3c(Cl)cccc3Cl)[C@@H]3CCC34CCC4)c2C(F)(F)F)CC[C@@H]1C(=O)O [Example 849]", "label_class": "MET"}
{"compound": "Cc1cc(Cl)c(C(=O)CN(C[C@@H]2CCC(C)(C)O2)C(=O)c2cnn([C@H]3CC[C@](C)(C(=O)O)CC3)c2C(F)(F)F)c(Cl)c1 [Example 783]", "label_class": "MET"}
{"compound": "CC1(C)[C@@H]2C[C@H](N(CC(=O)c3c(Cl)cccc3Cl)C(=O)c3cnn([C@H]4CC[C@H](C(=O)O)CC4)c3C(F)(F)F)C[C@@H]21 [Example 610]", "label_class": "MET"}
{"compound": "COc1cc(Cl)c(C(=O)CN(C(=O)c2cnn([C@H]3CC[C@H](C(=O)O)CC3)c2C(F)(F)F)C2CCC(C)(C)CC2)c(Cl)c1 [Example 575]", "label_class": "MET"}
{"compound": "CC1(CN(CC(=O)c2c(Cl)cncc2Cl)C(=O)c2cnn([C@H]3CC[C@](C)(C(=O)O)CC3)c2C(F)(F)F)COC1 [Example 675]", "label_class": "NOT MET"}
{"compound": "O=C(c1cnn([C@H]2CC[C@H](C(=O)O)CC2)c1C(F)(F)F)N(CCc1c(Cl)cccc1Cl)Cc1ccc(Cl)cc1 [Example 501]", "label_class": "MET"}
{"compound": "Cc1cc(Cl)c(C(=O)CN(CC2(F)CC2)C(=O)c2cnn([C@H]3CC[C@](C)(C(=O)O)CC3)c2C(F)(F)F)c(Cl)c1 [Example 630]", "label_class": "MET"}
{"compound": "CC(C)(C)CN(CC(=O)c1c(Cl)cncc1Cl)C(=O)c1cnn([C@H]2CC[C@@](C)(CC(=O)O)CC2)c1C(F)(F)F [Example 792]", "label_class": "NOT MET"}
